Source: patent US20160083466A1

Biological target: T1, human IL-25 expressed with a C-terminal myc-myc-hexahistidine tag (human)
T1 construct: also called hIL-25-MMH; Human IL-25-MMH
T1 chain: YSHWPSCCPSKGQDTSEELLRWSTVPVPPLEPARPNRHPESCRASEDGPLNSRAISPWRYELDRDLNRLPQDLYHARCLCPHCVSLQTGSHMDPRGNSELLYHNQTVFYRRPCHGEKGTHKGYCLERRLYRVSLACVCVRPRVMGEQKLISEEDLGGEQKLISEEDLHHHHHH
Assay: BLI Octet, hIL-25-MMH captured on anti-Penta-His sensor, 25C
observable: 50 ug/mL mAb-1 Binding (nm)
Value expressed in nm; do not type the unit.

binder | measuredValue
H4H10883P (antibody, human IgG4, V domains shown, H4H prefix = human IgG4 Fc) VH: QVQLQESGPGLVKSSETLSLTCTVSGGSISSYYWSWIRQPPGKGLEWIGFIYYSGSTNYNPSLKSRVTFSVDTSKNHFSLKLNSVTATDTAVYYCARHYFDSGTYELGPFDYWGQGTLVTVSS VL: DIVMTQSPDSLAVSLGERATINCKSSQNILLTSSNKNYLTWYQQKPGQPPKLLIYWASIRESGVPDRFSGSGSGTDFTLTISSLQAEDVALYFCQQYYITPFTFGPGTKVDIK | 0.7

Now let's try a different one.
Prompt: Fill in the blank: the reported 50 ug/mL mAb-1 Binding (nm) of H4H10861P (antibody, human IgG4, V domains shown, H4H prefix = human IgG4 Fc) VH: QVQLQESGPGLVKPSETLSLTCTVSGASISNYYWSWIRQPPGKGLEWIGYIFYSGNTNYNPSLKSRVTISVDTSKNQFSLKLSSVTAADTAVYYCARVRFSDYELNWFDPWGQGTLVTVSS VL: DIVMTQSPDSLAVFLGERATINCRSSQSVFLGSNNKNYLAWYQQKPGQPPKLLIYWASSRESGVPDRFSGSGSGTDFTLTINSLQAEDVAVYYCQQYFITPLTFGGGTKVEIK is ____.
Response: 0.88
